parameter.measured: melting point (°C)

In the examples that follow, each entry is paired with its recorded melting point.
molecule: N#Cc1cccc(C2=Nc3ccc(C#CC4=CCNCC4)cc3NC(=O)C2)c1
unit.label: °C
melting point: 184
--
molecule: CC(C)(CO)NC(=O)c1ccncc1C1=CCCc2ccccc21
unit.label: °C
melting point: 157

I = O=C(NC(Cc1ccc(F)cc1)C(=O)O)c1cn2cc(-c3ccc(Cl)cc3)ccc2n1 (centres undefined)
II = CN(C)CCN1CCC(=Cc2cc(C(C)(C)C)c(O)c(C(C)(C)C)c2)C1=O
Just tell me: smaller melting point value, I or II ? Write down the label of the entry you select.
II
(II: 150 °C, I: 266 °C)
